Source of measurements: PubChem BioAssay (NCI)

System: SNB-75 CNS
Assay: NCI-60 one-dose screen, 48 h (100 = growth as untreated, 0 = no growth, -100 = all killed)
Conditions: 10 µM unless noted
This is part of a sample that, as a whole, favours compounds with a hit. Of some 83,000 tested, about 20% had one in any assay. Active and inactive are the calls of the source. The calls were made as follows: active = growth percent below 10; inactive = the rest.
Provide the reported growth of each item.

* COc1ccc(OC)c(/C=C/[C@H]2O[C@@H](C)[C@H](O)[C@@H]2O)c1 | 90.2% (inactive)
* COc1ccc(/C(C)=N/NC(=O)CSc2nc3ccccc3c(=O)n2Cc2ccc(S(N)(=O)=O)cc2)c(OC)c1 | 82.9% (inactive)
* CN1CCN(c2cnc(C(=O)Nc3cc(F)cc4cccnc34)cn2)CC1 | 95.2% (inactive)
* COc1ccc(Nc2nc(N)nc3c2CCc2occc2-3)cc1 | 95% (inactive)
* COc1cc2nc(-c3ccc(C(F)(F)F)cc3)cc(OCCN3CCC(O)CC3)c2cc1OC | 58.1% (inactive)

// for each compound in input: emit growth
1. CCOc1cc(CNc2ccc(N3CCOCC3)c(C(=O)O)c2)ccc1OC
2. C=C1C(=O)O[C@H]2[C@H]1CC/C(COC(=O)NCCc1c[nH]c3ccc(Cl)cc13)=C\CC[C@@]1(C)O[C@@H]21
3. CCN(CC)CCCCCCNc1cc(OC)cc2cccnc12
4. C[C@]12CCc3nc(Nc4cccc(O)c4)sc3C1=CC[C@@H]1[C@@H]2CC[C@]2(C)/C(=N\NC(N)=S)CC[C@@H]12
5. COc1ccccc1OCC(=O)N1CCCCCC1
6. Cc1ccc(-c2csc(/N=C3\C(=O)Nc4ccccc43)n2)cc1
7. CN1C(=O)N(C)[C@H]2NC(NN)=N[C@H]21
8. ClCC1(Cn2cnc3c(Cl)nc(Cl)nc32)COC1

1. 108% (inactive)
2. -54.6% (active)
3. 75.5% (inactive)
4. 1.36% (active)
5. 91.4% (inactive)
6. 55.5% (inactive)
7. 80.9% (inactive)
8. 85.4% (inactive)

// for each compound in input: emit growth
1. CC1=NNC(=O)C1CCC(=O)N/N=C(\C)c1ccc2ccccc2c1 (stereo unspecified)
2. N#Cc1c(NC(=O)c2cccc(Br)c2)sc2c1CCCC2
3. COc1cccc(CCC(=O)c2cc3c(N)c(C(=O)Nc4cccc(Cl)c4C)sc3nc2C)c1

["121% (inactive)", "84.4% (inactive)", "-14.5% (active)"]

###

Tested on: NCI/ADR-RES ovarian
Assay: NCI-60 one-dose screen, 48 h
Conditions: 10 µM unless noted
About 83,000 compounds went through this panel and 20% of them were active in at least one assay; those are over-represented in the sample as a whole. Calls of active or inactive are those of the source. Rule for the calls: active = growth percent below 10; inactive = the rest.
Outcome field: choose from active, inactive

Consider the worked cases shown below.
- C#CC(=O)Nc1cccc2c1cc(C)n2-c1nc2c(c(NCc3ccccc3)n1)CCCC2: active
- CC(C)CN(C(=O)c1ccc(Cl)cc1)c1c(N)n(CC(C)C)c(=O)[nH]c1=O: inactive
- N#CC1=C(N)Oc2c(ccc3ccccc23)C1c1ccc([N+](=O)[O-])cc1 (stereo not drawn): inactive
- COc1ccc(C(O)c2cc3c(N)c(C(=O)Nc4ccccc4)sc3nc2C)cc1 (stereo not drawn): inactive
- CSc1nc(O)c(-c2ccccc2)c(=O)[nH]1: inactive
- O=C(Nc1ccc2ncnc(Nc3ccc(Oc4cccc(F)c4)c(Cl)c3)c2c1)c1ccc(CN2CCOCC2)cc1: active
- COc1ccc(C2CC(n3nnnc3-c3ccccc3)=NN2)cc1 (stereo not drawn): inactive
- CCSc1ccc2c(c1)N(CCCN1CCN(C)CC1)c1ccccc1S2: inactive
- COc1ccc(Nc2nc(N)nc3c2CCc2occc2-3)cc1: inactive
- O=C(O)/C=C\C(=O)N1C/C(=C\c2ccccc2Cl)C(=O)/C(=C/c2ccccc2Cl)C1: active

What classification did Cc1ccc(C2C3CC4CCCCC4N3[C@@]3(C(=O)Nc4cc(Cl)ccc43)C2C(=O)c2nc3ccccc3[nH]2)cc1 (stereo partly drawn) end up with in this test?
inactive

What do you have for O=C1/C(=C\c2cn(Cc3ccccc3)c3ccc(Br)cc23)c2ccccc2N1c1c(Cl)cccc1Cl ?
inactive

What do you have for COc1ccccc1-c1c(-c2ccc(Cl)cc2)c2cc3c(cc2[nH]c1=O)OCCO3 ?
inactive

What do you have for COc1ccc2c(c1)c(CC(=O)NCCOCCOCC(=O)Nc1ccc(OC)c(C(N)=O)c1O)c(C)n2C(=O)c1ccc(Cl)cc1 ?
inactive

What do you have for Cc1ccc(C2CC(c3cccc(Nc4ccncc4)c3)=NN2c2cc(Cl)cc(Cl)c2)cc1 (stereo not drawn) ?
inactive

What do you have for O=C1/C(=C/c2ccc(O)cc2)COc2ccc(-c3ccccc3)cc21 ?
inactive

What do you have for C#Cc1cccc(NC(=O)Nc2ccc(NC(=O)CCl)cc2)c1 ?
active

###

System: SK-MEL-5 melanoma
Assay: NCI-60 one-dose screen, 48 h
Conditions: 10 µM unless noted
This is part of a sample that, as a whole, favours compounds with a hit. Of some 83,000 tested, about 20% had one in any assay. Activity calls are given as the source filed them. The calls were made as follows: active = growth percent below 10; inactive = the rest.
Outcome field: choose from Y (active), N (inactive)

Consider the worked cases shown below.
* Nc1ncc(C#Cc2cncc(NC(=O)c3cccc(C(F)(F)F)c3)c2)c2cccnc12 | N
* O=C(CCN1CCCC1)Nc1ccc2c(Nc3ccccc3)c3ccccc3nc2c1 | N
* Clc1ccc(C2CC(c3cccc(Nc4ccncc4)c3)=NN2c2cc(Cl)cc(Cl)c2)cc1 (stereo not given) | N
* O=C(Nc1ccc2ncnc(Nc3ccc(Oc4cccc(F)c4)c(Cl)c3)c2c1)c1ccc(CN2CCOCC2)cc1 | Y

// switching to the query molecule
What classification did Cc1ccccc1CNc1ccc(N2CCOCC2)cc1 end up with in this test?
N

###

System: DU-145 prostate
Test: NCI-60 one-dose screen, 48 h (100 = growth as untreated, 0 = no growth, -100 = all killed)
Details: 10 µM unless noted
The panel holds about 83,000 compounds, 20% with a hit somewhere; the sample as a whole holds those more often.
METRIC: growth (%)
One number for each entry, in %.

Recorded results for 9 molecules are shown here.
- COc1cnccc1-c1nc2ccc3[nH]ncc3c2c2c1CCCC2: 62.7
- CS(=O)(=O)c1ccc(-c2cc3c(oc2=O)-c2ccccc2OC3O)cc1 (stereo not given): 87.1
- COc1cccc(CNCCN2C(=O)c3ccc4c5c(ccc(c35)C2=O)C(=O)N(CCNCc2cccc(OC)c2)C4=O)c1: 113
- COc1cc2nc(-c3ccc(C#N)cc3)[nH]c(=O)c2cc1OC: 105
- COc1ccc(/C(=C\c2ccccc2)C(=O)O)cc1OC: 108
- COc1cc(-c2cc(=O)oc3cc(O)ccc23)c(OC)c2c1OCO2: 101
- COc1cc(COC(=O)CCCCC[P+](c2ccccc2)(c2ccccc2)c2ccccc2)c(OC)c2c1OCO2: 83.5
- COc1ccccc1Nc1cc(O)c2c(=O)cc(-c3ccccc3)oc2c1: 45.6
- COc1ccc(C(=O)/C=C/c2cn(Cc3ccc(Cl)cc3)c3ccccc23)cc1: 87.4

Name the reported growth value associated with the molecule c1ccc(CCSc2ncnc3nc[nH]c23)cc1
108

###

Tested on: HCC-2998 colon
Test: NCI-60 one-dose screen, 48 h
Conditions: 10 µM unless noted
Protocol: Growth inhibition of the HCC-2998 human tumor cell line is measured as a screen for anti-cancer activity. Cells are grown in 96 well plates and exposed to the test compound for 48 hours. Compounds are tested at a single concentration, which is 10^-5 M for most compounds. The reported endpoint is percent growth (GI% or GIPRCNT), where numbers from 0 - 100% represent growth inhibition, and numbers from -100% - 0 represent cell death. For example, a value of 40 represents 60% growth inhibition. […]
This is part of a sample that, as a whole, favours compounds with a hit. Of some 83,000 tested, about 20% had one in any assay. Calls of active or inactive are those of the source. The calls were made as follows: active = growth percent below 10; inactive = the rest.
Outcome field: choose from active, inactive

Consider the worked cases shown below.
* COc1ccc(-c2nn(Cc3ccccc3)c3c2-c2oncc2CC3)cc1OC | inactive
* Cc1ccccc1CNc1ccc(N2CCOCC2)cc1 | inactive
* CC1(C)CN(c2cnc(C(=O)Nc3cc(F)cc4cccnc34)cn2)CCN1 | inactive
* CC1(C)[C@H](O)CC[C@]2(C)[C@@H]1CC[C@@]13C[C@@H](CC[C@H]12)[C@@](O)(CO)C3 | inactive

What classification did CCCCCCCCCCCC(=O)C(CCCCCCCCCC)C(=O)Nc1ccccc1 (centres undefined) end up with in this test?
inactive

What do you have for O=C1/C(=C/c2ccc(O)cc2)COc2ccc(-c3ccccc3)cc21 ?
inactive

What do you have for CCCCCCc1nc2nc(Cl)c(Cl)nc2[nH]1 ?
inactive

What do you have for CC(C)C1C2=C(NCCN1C(=O)Cc1ccccc1)C(C)(C)N(Cc1ccccc1)C2=O (centres undefined) ?
inactive

What do you have for N#CC1=C(N)Oc2c(ccc3ccccc23)C1c1ccc([N+](=O)[O-])cc1 (centres undefined) ?
inactive

What do you have for CCCCCN1C=C/C(=C\C(=O)N(C)c2ccc(Br)cc2)c2ccccc21 ?
inactive

What do you have for COc1ccc(Nn2c(SCC(=O)Nc3nc(-c4ccc(Cl)cc4)cs3)nc(C)c2C)cc1 ?
inactive

What do you have for COc1ccc(Cl)cc1NC(=O)c1c(NC(=O)C(F)(F)C(F)(F)F)sc2c1CCCCC2 ?
inactive

What do you have for C=C1C(=O)O[C@H]2[C@H]1CC/C(COC(=O)NCCc1c[nH]c3ccc(Cl)cc13)=C\CC[C@@]1(C)O[C@@H]21 ?
inactive
